Data provenance is the supplement of paper PMC8728848.

- TESTED TARGET: Gal3S(b1-4)Glc
- ASSAY EXPLANATION: glycan array binding signal (z-score within array); higher = stronger binding
- ASSAY CONTEXT: glycan notation: IUPAC condensed, linker removed
Shown is part of a subset that was picked to be rich in the strongest signals.
Please respond with reported glycan array binding signal (z-score) for every item in the list.
Give bare numbers.

Here's what some known entries look like.
>>> value_measured("Cohesin-mDCIR (Macaca mulatta) (protein) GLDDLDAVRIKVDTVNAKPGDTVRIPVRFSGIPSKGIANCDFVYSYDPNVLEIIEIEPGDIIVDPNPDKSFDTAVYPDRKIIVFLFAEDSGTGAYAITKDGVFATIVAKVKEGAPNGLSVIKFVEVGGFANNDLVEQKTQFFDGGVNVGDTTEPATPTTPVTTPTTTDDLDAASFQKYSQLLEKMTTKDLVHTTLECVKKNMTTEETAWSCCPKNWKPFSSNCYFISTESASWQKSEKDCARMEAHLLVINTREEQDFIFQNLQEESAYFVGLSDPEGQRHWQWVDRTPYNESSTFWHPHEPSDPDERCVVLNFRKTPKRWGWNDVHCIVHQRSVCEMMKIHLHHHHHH")
5.11
>>> value_measured("GS13455A-bfa-343-25-343 (Bacteroides fragilis) (protein) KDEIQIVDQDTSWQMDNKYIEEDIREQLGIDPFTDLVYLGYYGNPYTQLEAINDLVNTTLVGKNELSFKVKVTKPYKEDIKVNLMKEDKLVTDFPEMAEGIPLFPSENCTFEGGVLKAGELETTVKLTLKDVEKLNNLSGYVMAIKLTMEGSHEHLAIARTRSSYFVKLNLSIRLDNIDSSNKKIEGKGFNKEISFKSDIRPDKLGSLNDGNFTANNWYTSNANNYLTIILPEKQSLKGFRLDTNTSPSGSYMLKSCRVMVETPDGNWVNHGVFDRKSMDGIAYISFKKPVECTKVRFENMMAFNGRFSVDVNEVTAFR")
1.7
>>> value_measured("SP15308A-bot-339-19-339 (Bacteroides ovatus) (protein) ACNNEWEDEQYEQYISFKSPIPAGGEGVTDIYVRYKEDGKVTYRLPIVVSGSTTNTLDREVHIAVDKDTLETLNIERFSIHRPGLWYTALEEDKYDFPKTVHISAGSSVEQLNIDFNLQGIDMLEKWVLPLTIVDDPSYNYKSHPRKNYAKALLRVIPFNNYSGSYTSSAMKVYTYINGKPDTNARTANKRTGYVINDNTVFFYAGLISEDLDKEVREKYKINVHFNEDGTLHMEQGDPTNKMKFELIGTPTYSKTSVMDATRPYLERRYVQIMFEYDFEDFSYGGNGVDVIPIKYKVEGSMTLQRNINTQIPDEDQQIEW")
0.257

Then this binder:
q: Consider the binder shown here: Cohesin-hMARCO (Homo sapiens) (protein) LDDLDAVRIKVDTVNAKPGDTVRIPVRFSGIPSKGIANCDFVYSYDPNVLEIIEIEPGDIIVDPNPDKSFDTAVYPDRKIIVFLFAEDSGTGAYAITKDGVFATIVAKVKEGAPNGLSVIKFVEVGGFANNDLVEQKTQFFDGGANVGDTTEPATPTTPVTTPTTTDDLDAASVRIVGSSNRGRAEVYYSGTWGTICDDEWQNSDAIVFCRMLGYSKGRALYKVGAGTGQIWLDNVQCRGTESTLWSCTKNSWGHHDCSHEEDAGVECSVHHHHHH What is its recorded glycan array binding signal (z-score)?
a: 3.03
